Test: in vivo
Design: species or system rats
Conditions: rat, in vivo, po, rats, p.o., strongest effect within first 6 hours; read-out: Catalep. (catalepsy wire mesh, rat, max, ED50)
Binned ED50; ranges: low = under 0.5 mg/kg, medium = from 0.5 mg/kg up to 10 mg/kg, high = 10 mg/kg and over

Examples from the recorded data:
O[C@H]1CC[C@H](CN2CCN(C3CC(c4ccc(F)cc4)c4ccc(F)cc43)CC2)CC1 (relative stereo)    high
O=C(CCCN1CCC(O)(c2ccc(Cl)cc2)CC1)c1ccc(F)cc1 [haloperidol, reference compound]    low
CC(O)CN1CCN(C2CC(c3ccc(F)cc3)c3ccc(F)cc32)CC1 (stereo not drawn)    high
OCCCN1CCN(C2CC(c3ccc(F)cc3)c3ccc(C(F)(F)F)cc32)CC1 (stereo not drawn)    low
OCCN1CCN([C@@H]2C[C@@H](c3ccc(F)cc3)c3cc(F)ccc32)CC1 (relative stereo)    high

Quick check: band for CN1CCN([C@@H]2C[C@@H](c3ccccc3)c3ccc(Cl)cc32)CC1 (relative stereo) high

Quick check: band for OCC(O)CN1CCN(C2CC(c3ccc(F)cc3)c3ccc(C(F)(F)F)cc32)CC1 (stereo not drawn) low

Quick check: band for CN1CCN([C@@H]2C[C@@H](c3ccc(F)cc3)c3ccc(Cl)cc32)CC1 (relative stereo) medium

Quick check: band for CC(C)N1CCN(C2CC(c3ccc(F)cc3)c3ccc(F)cc32)CC1 (stereo not drawn) high

Quick check: band for CN1CCN([C@@H]2C[C@H](c3ccc(F)cc3)c3ccc(Cl)cc32)CC1 (relative stereo) high

Quick check: band for Cc1ccc2c(c1)C(N1CCN(CC3CC3)CC1)CC2c1ccc(F)cc1 (stereo not drawn) high

Quick check: band for OCC(CO)N1CCN(C2CC(c3ccc(F)cc3)c3ccc(F)cc32)CC1 (stereo not drawn) high

Quick check: band for OCCN1CCN([C@@H]2C[C@@H](c3ccc(F)cc3)c3ccc(Cl)cc32)CC1 (relative stereo) medium

Quick check: band for OCC(CO)N1CCN(C2CC(c3ccc(F)cc3)c3ccc(C(F)(F)F)cc32)CC1 (stereo not drawn) low

Quick check: band for OCCCCN1CCN([C@@H]2C[C@@H](c3ccc(F)cc3)c3ccc(F)cc32)CC1 (relative stereo) high

Quick check: band for CC(C)N1CCN(C2CC(c3ccc(F)cc3)c3ccc(C(F)(F)F)cc32)CC1 (stereo not drawn) medium

---

Test system: methylphenidate
Assay: Methylphenidate antagonism in mice
Format: in vivo
Settings: Mus musculus, ip, 2 h, read-out: MePh antag. ED50 2 hr i.p., mice, test substance i.p., 2 hr before methylphenidate 60 mg/kg s.c.
Experimental: Methylphenidate antagonism (ED50 mg/kg i.p.) Perspex observation cages without bottom and lid, consisting of 5 sections each measuring 12×25×30 cm. 3×2 mice are used for each dose level. Two or 24 hours after injection of test substance, methylphenidate, 60 mg/kg, is injected s.c. After administration of methylphenidate the mice are placed in the observation cages, 2 in each cage, where they remain for exactly 1 hour. The cages were placed on corrugated paper, the corrugations facing upwards. […]
Binned ED50; ranges: low (below 0.8 mg/kg), mid (0.8 mg/kg to below 4 mg/kg), high (4 mg/kg or more)

CN1CCN(C2CC(c3ccc(F)cc3)c3cc(F)ccc32)CC1 (stereo not shown)    high
CN1CCN([C@@H]2C[C@@H](c3ccc(F)cc3)c3ccc(Cl)cc32)CC1 (relative stereo)    mid
CSc1ccc2c(c1)[C@H](N1CCN(C)CC1)C[C@H]2c1ccc(F)cc1 (relative stereo)    mid

Quick check: band for OCCN1CCN([C@@H]2C[C@H](c3ccc(F)cc3)c3ccc(Cl)cc32)CC1 (relative stereo) mid

Quick check: band for CN1CCN([C@@H]2C[C@@H](c3ccccc3)c3ccc(Cl)cc32)CC1 (relative stereo) high

Quick check: band for OCCN1CCN(CCCN2c3ccccc3Sc3ccc(C(F)(F)F)cc32)CC1 [fluphenazine, reference compound] low

Quick check: band for OCCCN1CCN(C2CC(c3ccc(F)cc3)c3ccc(C(F)(F)F)cc32)CC1 (stereo not shown) low

Quick check: band for OCCCCN1CCN(C2CC(c3ccc(F)cc3)c3ccc(C(F)(F)F)cc32)CC1 (stereo not shown) low

Quick check: band for Cc1ccc2c(c1)C(N1CCN(CC3CC3)CC1)CC2c1ccc(F)cc1 (stereo not shown) high

Quick check: band for COc1ccc2c(c1)C(N1CCN(CCO)CC1)CC2c1ccc(F)cc1 (stereo not shown) high

meta.source: patent US4443448A
